conditions: 308.15 K; 101 kPa; Liquid; Oscillating disk viscometry
measured-property: viscosity (mPa·s)

Guide cases for viscosity, answers given:
[[record]]
molecule = "C[NH+](C)C.O=P([O-])(O)O [trimethylammonium dihydrogen phosphate]"
measured_property = "viscosity"
unit_info = "mPa·s"
readout_value = 5.61

[[record]]
molecule = "C[S+](C)[O-] [dimethyl sulfoxide]"
measured_property = "viscosity"
unit_info = "mPa·s"
readout_value = 1.65


[1] CC(=O)[O-].C[NH+](C)C [trimethylammonium acetate]
[2] C[NH+](C)C.O=S(=O)([O-])O [trimethylammonium hydrogen sulfate]
Query string: Of 1 and 2 , which one carries the higher reported viscosity? Use the label to indicate which entry you chose.
Result string: 2
(2: 3.94 mPa·s, 1: 2.06 mPa·s)
